System: Rattus norvegicus
Assay: In vivo percent change in plasma cholesterol level was measured at a dose of 30 mg/Kg in rat and expressed as deltaTC; not significant
Type: functional
Give measured DeltaTC for each item. Keep answers brief.
Numeric answer only, unit % assumed.

q: Note DeltaTC for the molecule shown: CCCCCCCCN(CCCCCCCC)C(=O)CS(=O)(=O)Nc1c(C(C)C)cccc1C(C)C
a: -19

q: Note DeltaTC for the molecule shown: CCCCCCCCCCCCNC(=O)CS(=O)(=O)Oc1c(C(C)C)cccc1C(C)C
a: -3

q: Note DeltaTC for the molecule shown: CCCCCCCCOC(=O)CS(=O)(=O)Nc1c(C(C)C)cccc1C(C)C
a: -4

q: Note DeltaTC for the molecule shown: COc1cc(OC)c(OC(=O)CS(=O)(=O)Nc2c(C(C)C)cccc2C(C)C)c(OC)c1
a: -6

q: Note DeltaTC for the molecule shown: CCCCCCCCCCCCCCCCCCSC(=O)CS(=O)(=O)Nc1c(C(C)C)cccc1C(C)C
a: -35

q: Note DeltaTC for the molecule shown: CC(C)c1cccc(C(C)C)c1NS(=O)(=O)CC(=O)Sc1c(C(C)C)cccc1C(C)C
a: -16

q: Note DeltaTC for the molecule shown: CCOC(=O)CS(=O)(=O)Nc1c(C(C)C)cccc1C(C)C
a: 2

q: Note DeltaTC for the molecule shown: CCCCCCOC(=O)CS(=O)(=O)Nc1c(C(C)C)cccc1C(C)C
a: -5

q: Note DeltaTC for the molecule shown: CC(C)c1cc(C(C)C)c(OC(=O)CS(=O)(=O)Nc2c(C(C)C)cccc2C(C)C)c(C(C)C)c1
a: -19

* * *

Target: Acyl-CoA:cholesterol acyltransferase (Oryctolagus cuniculus, UniProt Q95214)
Sequence (Q95214 whole entry): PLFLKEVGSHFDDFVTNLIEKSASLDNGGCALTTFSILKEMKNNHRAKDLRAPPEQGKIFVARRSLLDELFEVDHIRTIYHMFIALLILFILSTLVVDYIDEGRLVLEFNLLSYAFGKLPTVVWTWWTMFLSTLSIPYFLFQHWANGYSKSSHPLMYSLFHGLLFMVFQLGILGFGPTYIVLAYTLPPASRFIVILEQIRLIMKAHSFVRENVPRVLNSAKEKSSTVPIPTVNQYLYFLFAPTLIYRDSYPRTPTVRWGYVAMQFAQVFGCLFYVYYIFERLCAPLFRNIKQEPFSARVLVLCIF
Assay: In vitro inhibition of ACAT by incubation with [1-14C]oleolyl-CoA and intestinal microsomes isolated from cholesterol-fed rabbits.
Parameters: species or system Intestine
property.label: IC50 (nM)
Numeric answer only, unit nM assumed.

q: Note IC50 for the molecule shown: COP(=O)(Cc1c(C(C)C)cccc1C(C)C)NC(=O)Cc1c(C(C)C)cc(C(C)C)cc1C(C)C (stereo unspecified)
a: 1200

q: Note IC50 for the molecule shown: CC(C)c1cc(C(C)C)c(OS(=O)(=O)CC(=O)Nc2c(C(C)C)cccc2C(C)C)c(C(C)C)c1
a: 7

q: Note IC50 for the molecule shown: CCCCCCCCSC(=O)CS(=O)(=O)Nc1c(C(C)C)cccc1C(C)C
a: 150

q: Note IC50 for the molecule shown: CC(C)c1cc(C(C)C)c(CC(=O)NS(=O)(=O)Oc2c(C(C)C)cccc2C(C)C)c(C(C)C)c1 [AVASIMIBE]
a: 12000

* * *

Target: Acyl-CoA:cholesterol acyltransferase (Oryctolagus cuniculus, UniProt Q95214)
Test: In vitro inhibition of ACAT by incubation with [1-14C]oleolyl-CoA and intestinal microsomes isolated from cholesterol-fed rabbits.
property.label: pIC50
Entry type: numeric. Quantity: pIC50, the -log10 of concentration in molar units.

q: Note pIC50 for the compound shown: CC(C)c1cc(C(C)C)c(OC(=O)CS(=O)(=O)Nc2c(C(C)C)cccc2C(C)C)c(C(C)C)c1
a: 5.55

q: Note pIC50 for the compound shown: CCCCCCCCCCCCNC(=O)CS(=O)(=O)Oc1c(C(C)C)cccc1C(C)C
a: 5.52

q: Note pIC50 for the compound shown: CC(C)c1cccc(C(C)C)c1NC(=O)CS(=O)(=O)Nc1c(C(C)C)cccc1C(C)C
a: 6.46

q: Note pIC50 for the compound shown: CCCCCCSC(=O)CS(=O)(=O)Nc1c(C(C)C)cccc1C(C)C
a: 6.00

q: Note pIC50 for the compound shown: CC(C)c1cccc(C(C)C)c1OC(=O)[N-]S(=O)(=O)Oc1c(C(C)C)cccc1C(C)C.[Na+]
a: 5.28

q: Note pIC50 for the compound shown: CCCCCCCCCCCCNC(=O)CS(=O)(=O)Nc1c(C(C)C)cccc1C(C)C
a: 6.49
